Cited source for all entries: patent US11471394B2

# Test system: biofilm of five representative oral bacterial species: A. viscosus, L. casei, S. oralis, V. parvula and F. nucleatum
# measurement_protocol: Example 1: healthy biofilm formation on saliva-coated HAP disks (absorbance at 610 nm after trypsin)
# Assay type: cell-based
# experimental_setup: compound 0.01 wt. %; 48 hours biofilm; reduction in absorbance relative to disks treated with media alone
property_label: % biofilm inhibition (B)

Below: 3 molecules and their reported % biofilm inhibition (B).
[
  {
    "molecule": "O=CC[C@@H](O)[C@H](O)[C@H](O)CO",
    "% biofilm inhibition (B)": "30.54%"
  },
  {
    "molecule": "O=C[C@H](F)[C@@H](O)[C@H](O)[C@H](O)CO",
    "% biofilm inhibition (B)": "46.50%"
  },
  {
    "molecule": "Cl.NCC(O)CCC(N)C(=O)O (racemic) [DL-5-hydroxylysine HCl, reference compound]",
    "% biofilm inhibition (B)": "5.85%"
  }
]

Now turn to the next molecule.
# % biofilm inhibition (B) lookup, item "C[C@@H](O)[C@@H](O)[C@H](O)[C@@H](O)C=O"
25.33%
